molecular target: FAP-expressing human WI-38 fibroblasts (Homo sapiens); construct: FAP-expressing human WI-38 fibroblasts (ECACC 90020107) were cultured in EMEM; host or cells: WI-38 human fibroblasts; test: Competitive FACS binding assay (displacement of Cy5-labeled FAP inhibitor 3BP-2935); settings: 3 nM Cy5-labeled 3BP-2935, 4°C, 1 hour
Sequence (Q12884 whole entry): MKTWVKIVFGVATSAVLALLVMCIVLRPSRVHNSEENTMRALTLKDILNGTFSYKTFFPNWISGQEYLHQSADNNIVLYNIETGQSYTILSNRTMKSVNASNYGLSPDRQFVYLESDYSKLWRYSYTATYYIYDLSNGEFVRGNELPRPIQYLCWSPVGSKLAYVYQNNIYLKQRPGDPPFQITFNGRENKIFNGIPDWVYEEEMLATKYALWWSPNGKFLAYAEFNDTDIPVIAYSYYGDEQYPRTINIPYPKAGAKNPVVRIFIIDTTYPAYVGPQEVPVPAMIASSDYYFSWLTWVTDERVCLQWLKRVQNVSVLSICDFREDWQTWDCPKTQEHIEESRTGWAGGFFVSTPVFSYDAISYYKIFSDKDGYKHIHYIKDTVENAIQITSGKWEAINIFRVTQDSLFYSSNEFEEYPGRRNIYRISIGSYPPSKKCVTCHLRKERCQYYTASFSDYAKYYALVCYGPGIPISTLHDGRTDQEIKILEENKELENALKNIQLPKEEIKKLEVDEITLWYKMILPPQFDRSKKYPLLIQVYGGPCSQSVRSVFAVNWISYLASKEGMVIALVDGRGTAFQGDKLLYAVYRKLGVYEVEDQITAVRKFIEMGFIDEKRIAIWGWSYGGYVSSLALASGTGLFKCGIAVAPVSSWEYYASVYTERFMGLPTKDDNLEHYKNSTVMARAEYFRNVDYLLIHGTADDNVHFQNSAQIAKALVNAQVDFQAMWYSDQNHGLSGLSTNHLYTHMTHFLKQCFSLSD
property-name: pIC50 (FACS)
Just the number, please.

[[record]]
molecule = "N#C[C@@H]1CC(F)(F)CN1C(=O)CNC(=O)c1ccnc2ccc(-c3ccc(C(=O)NCCCNC(=O)CN4CCN(CC(=O)O)CCN(CC(=O)O)CCN(CC(=O)O)CC4)cc3)cc12"
property_name = "pIC50 (FACS)"
test_value = 8.9

[[record]]
molecule = "CN(CCCN1CCN(C(=O)CN2CCN(CC(=O)O)CCN(CC(=O)O)CCN(CC(=O)O)CC2)CC1)c1ccc2nccc(C(=O)NCC(=O)N3CC(F)(F)C[C@H]3C#N)c2c1"
property_name = "pIC50 (FACS)"
test_value = 9

[[record]]
molecule = "O=C(O)CN1CCN(CC(=O)O)CCN(CC(=O)N2CCN(CCCOc3ccc4nccc(C(=O)NCC(=O)N5CCC[C@H]5C(=O)c5nc6ccccc6o5)c4c3)CC2)CCN(CC(=O)O)CC1 [drawing 357]"
property_name = "pIC50 (FACS)"
test_value = 8.6

[[record]]
molecule = "O=C(O)CN1CCN(CC(=O)O)CCN(CC(=O)N2CCN(CCCOc3ccc4nccc(C(=O)NCC(=O)N5CC(F)(F)C[C@H]5C(=O)c5nc6ccccc6o5)c4c3)CC2)CCN(CC(=O)O)CC1"
property_name = "pIC50 (FACS)"
test_value = 7.9

[[record]]
molecule = "O=C(O)CN1CCN(CC(=O)O)CCN(CC(=O)N2CCN(CCNC(=O)c3ccc(-c4ccc5nccc(C(=O)NCC(=O)N6CCC[C@H]6C(=O)c6nc7ccccc7o6)c5c4)cc3)CC2)CCN(CC(=O)O)CC1 [drawing 354]"
property_name = "pIC50 (FACS)"
test_value = 7.9


Prompt: pIC50 (FACS) of O=C(O)CN1CCN(CC(=O)O)CCN(CC(=O)N2CCN(CCNC(=O)c3cccc(-c4ccc5c(C(=O)NCC(=O)N6CCC[C@H]6C(=O)c6nc7ccccc7o6)ccnc5c4)c3)CC2)CCN(CC(=O)O)CC1 [drawing 352] on FAP-expressing human WI-38 fibroblasts (Homo sapiens)?
Completion: 8.4

Prompt: Entry N#C[C@@H]1CC(F)(F)CN1C(=O)CNC(=O)c1ccnc2c(OCCCCc3ccccc3)cccc12 please
Completion: 7.7

Prompt: Entry N#C[C@@H]1CCCN1C(=O)CNC(=O)c1cc[n+]([O-])c2ccccc12 please
Completion: 7.1

Prompt: Entry CS(=O)(=O)c1ccc(-c2ccc3c(C(=O)NCC(=O)N4CC(F)(F)C[C@H]4C#N)ccnc3c2)cc1 please
Completion: 8.5

Prompt: Entry N#C[C@@H]1CC(F)(F)CN1C(=O)CNC(=O)c1cc[n+]([O-])c2ccc(OCCCN3CCN(C(=O)CN4CCN(CC(=O)O)CCN(CC(=O)O)CCN(CC(=O)O)CC4)CC3)cc12 please
Completion: 8.5

Prompt: Entry O=C(O)CN1CCN(CC(=O)O)CCN(CC(=O)N2CCN(CCNC(=O)c3ccc(-c4ccc5c(C(=O)NCC(=O)N6CCC[C@H]6C(=O)c6nc7ccccc7o6)ccnc5c4)cc3)CC2)CCN(CC(=O)O)CC1 [drawing 355] please
Completion: 8.4
